Measured EC50 of individual entries
Test system: A549 cells
PROCEDURE TEXT: Cell Proliferation Assay, A549
Format: cell-based
CONDITION DETAILS: Homo sapiens; A549, BME media lacking nonessential amino acids, 72 hours, ATPlite; read-out: Percent viability (EC50), Average
State the answer as a number, implicitly in µM.

[
  {
    "SUBSTANCE SMILES": "CO[C@H]1CC[C@H](N(Cc2cccc(N)c2)C(=O)c2cc(C(F)(F)F)n[nH]2)CC1",
    "EC50, µM": 0.102
  },
  {
    "SUBSTANCE SMILES": "CO[C@H]1CC[C@H](N(Cc2ccccc2F)C(=O)c2cc(C(F)(F)F)n[nH]2)CC1",
    "EC50, µM": 0.188
  }
]

The record that follows has no EC50 shown yet.
Recall and state the measured EC50 for Nc1cccc(F)c1CN(CCC1CCS(=O)(=O)CC1)C(=O)c1cc(C(F)(F)F)n[nH]1 .
0.0203

---

Tested on: 22RV1
PROCEDURE TEXT: Cell line sensitivity (viability, ATPlite)
Format: cell-based
CONDITION DETAILS: Homo sapiens; 22RV1, Prostate; BME media, 72 hours; read-out: Sensitivity to Example 1 (IC50)
MEASURED QUANTITY: IC50

Output reported IC50 of the compound O=C(c1cc(C(F)(F)F)n[nH]1)N(Cc1ccc(O)cc1F)CC1CCC1 on 22RV1.
> 30 µM

---

Max. Resp. overview
SUBJECT OF TEST: PKM2 (Homo sapiens, UniProt P14618)
Sequence (P14618 whole entry): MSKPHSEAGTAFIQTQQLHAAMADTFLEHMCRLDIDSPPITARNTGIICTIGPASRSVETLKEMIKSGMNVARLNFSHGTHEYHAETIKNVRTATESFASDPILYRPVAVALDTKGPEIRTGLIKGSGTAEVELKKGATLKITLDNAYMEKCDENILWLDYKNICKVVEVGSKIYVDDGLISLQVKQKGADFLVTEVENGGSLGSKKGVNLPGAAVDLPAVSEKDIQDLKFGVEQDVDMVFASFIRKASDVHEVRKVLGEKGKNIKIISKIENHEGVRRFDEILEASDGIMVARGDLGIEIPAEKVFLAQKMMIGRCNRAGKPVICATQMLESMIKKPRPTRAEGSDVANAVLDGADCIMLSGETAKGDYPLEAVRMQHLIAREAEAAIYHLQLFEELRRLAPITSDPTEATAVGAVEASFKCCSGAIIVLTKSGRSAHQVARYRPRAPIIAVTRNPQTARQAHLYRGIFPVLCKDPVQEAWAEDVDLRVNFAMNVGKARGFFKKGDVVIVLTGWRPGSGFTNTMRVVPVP
PROCEDURE TEXT: PKM2 Biochemical Assay
CONDITION DETAILS: % maximum response in a biochemical assay as compared with Fructose 1,6-bisphosphate
The reply should contain only the number, in %.

[
  {
    "COMPOUND": "O=C(c1cc(C(F)(F)F)n[nH]1)N(CCC1CCS(=O)(=O)C1)Cc1cccc(F)c1 (centres unmarked) [Example 67]",
    "SUBJECT OF TEST": "PKM2 (Homo sapiens, UniProt P14618)",
    "UNIT LABEL": "%",
    "Max. Resp.": 95
  }
]

Give the value of Max. Resp. reported for the following: O=C(c1cc(C(F)(F)F)n[nH]1)N(CCC1CCOC1)Cc1ccc(O)cc1F (centres unmarked) [Example 34]
109

Report Max. Resp. for O=C(c1cc(C(F)(F)F)n[nH]1)N(Cc1ccc(O)cc1Cl)CC1CCC1 [Example 124]
100

Specify measured Max. Resp. for O=C(c1cc(C(F)(F)F)n[nH]1)N(Cc1ccccc1F)CC1CCOC1 (centres unmarked) [Example 150] .
68

Specify reported Max. Resp. for the compound shown: O=C(c1cc(C(F)(F)F)n[nH]1)N(CCC1CCS(=O)(=O)C1)Cc1ccc(O)cc1F (centres unmarked) [Example 76]
93

Consider the compound O=C(c1cc(C(F)(F)F)n[nH]1)N(CCC1CCOC1)Cc1ccccc1F (centres unmarked) [Example 26] . State its measured Max. Resp..
99

State its Max. Resp. for this compound: O=C(c1cc(C(F)(F)F)n[nH]1)N(Cc1ccccc1F)C1CCCCC1 [Example 153]
57

Give me measured Max. Resp., please, for this compound: COCCCN(Cc1ccccc1F)C(=O)c1cc(C(F)(F)F)n[nH]1 [Example 30]
72

Note down Max. Resp. recorded for O=C(c1cc(C(F)(F)F)n[nH]1)N(CCc1ccc(O)cc1)Cc1ccccc1Cl [Example 230]
100

Annotate the compound CCCN(CC)CCN(Cc1c(N)cccc1F)C(=O)c1cc(C(F)(F)F)n[nH]1 [Example 240] with its measured Max. Resp..
100

Please indicate Max. Resp. recorded for O=C(c1cc(C(F)(F)F)n[nH]1)N(Cc1cccc2[nH]ccc12)CC1CCC1 [Example 6]
100

Given Nc1ccccc1CN(CCC1CCS(=O)(=O)C1)C(=O)c1cc(C(F)(F)F)n[nH]1 (centres unmarked) [Example 77] , respond with its Max. Resp..
43
